Molecular target: human recombinant serotonin (5-Hydroxytryptamine) 5-HT6 receptor (Homo sapiens, UniProt P50406)
Construct: expressed in transfected cells; host or cells: human HeLa cells
Sequence (P50406 whole entry): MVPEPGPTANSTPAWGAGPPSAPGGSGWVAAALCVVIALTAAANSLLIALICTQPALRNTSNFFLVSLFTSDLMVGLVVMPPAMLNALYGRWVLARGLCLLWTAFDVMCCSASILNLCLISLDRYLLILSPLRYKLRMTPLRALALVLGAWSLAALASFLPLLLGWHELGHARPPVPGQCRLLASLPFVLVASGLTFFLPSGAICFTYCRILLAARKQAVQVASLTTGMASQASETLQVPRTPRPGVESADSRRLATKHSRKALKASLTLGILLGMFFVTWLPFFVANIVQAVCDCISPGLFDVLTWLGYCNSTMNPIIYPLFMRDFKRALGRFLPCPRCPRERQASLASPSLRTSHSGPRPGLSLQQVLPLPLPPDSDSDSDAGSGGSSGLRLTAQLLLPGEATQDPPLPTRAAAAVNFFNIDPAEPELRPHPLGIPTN
Experiment: Serotonin 5-HT6 radioligand binding ([3H]LSD)
Settings: compound at 1 μM; read-out: Inhibition of ligand binding, Serotonin 5-HT6 (percent inhibition of specific binding)
Metric: inhibition at 1 µM (%)
Numbers only here, please. The scale is %.

Measured inhibition at 1 µM, CCC(O)(Cn1c2c(c3cc(Cl)ccc31)CN(C)CC2)c1ccc(F)cc1 (centres unmarked) : 101

Measured inhibition at 1 µM, C/C(=C\n1c2c(c3cc(C)ccc31)CN(C)CC2)c1cccnc1 : 76

Measured inhibition at 1 µM, C/C(=C\n1c2c(c3cc(Cl)ccc31)CN(C)CC2)c1ccc(C)nc1 : 67

Measured inhibition at 1 µM, CN1CCc2c(c3cc(Cl)ccc3n2C2=C(c3cccnc3)CCCC2)C1 : 6

Measured inhibition at 1 µM, CN1CCc2c(c3cc(Cl)ccc3n2C#Cc2ccc(F)cc2)C1 : 99

Measured inhibition at 1 µM, C=C(Cn1c2c(c3cc(C)ccc31)CN(C)CC2)c1ccc(F)cc1 : 100

Measured inhibition at 1 µM, CN1CCc2c(c3cc(Cl)ccc3n2/C=C(/c2ccc(F)cc2)C2CCC2)C1 : 102

Measured inhibition at 1 µM, CN1CCc2c(c3cc(Cl)ccc3n2CC(C)(O)c2ccncc2)C1 (centres unmarked) : 73

----------
inhibition at 1 µM values for the compounds below.
Molecular target: human recombinant histamine H2 receptor (Homo sapiens)
Construct: expressed in transfected cells; host or cells: Chinese hamster ovary (CHO) K1 cells
Sequence (P25021 whole entry): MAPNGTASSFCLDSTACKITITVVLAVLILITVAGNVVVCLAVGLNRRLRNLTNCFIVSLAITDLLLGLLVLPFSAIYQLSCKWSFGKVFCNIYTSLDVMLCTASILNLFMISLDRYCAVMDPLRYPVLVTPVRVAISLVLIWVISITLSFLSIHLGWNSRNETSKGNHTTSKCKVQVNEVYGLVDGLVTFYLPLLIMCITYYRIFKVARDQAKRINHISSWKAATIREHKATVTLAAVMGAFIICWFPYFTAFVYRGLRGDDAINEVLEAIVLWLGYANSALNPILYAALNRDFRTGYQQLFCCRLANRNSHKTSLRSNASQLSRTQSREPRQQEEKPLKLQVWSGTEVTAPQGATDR
Assay: Histamine H2 radioligand binding ([125I]Aminopotentidine)
Conditions: read-out: Histamine Binding (1 μM) H2, percent inhibition of specific binding, 1 μM
Numbers only here, please. The scale is %.

// worked examples, inhibition at 1 µM included
Compound | Target or test system | Value unit | inhibition at 1 µM
C=C(Cn1c2c(c3cccc(F)c31)CN(C)CC2)c1ccc(F)cc1 | human recombinant histamine H2 receptor (Homo sapiens) | % | 93
Cc1ccc2c(c1)c1c(n2CC(C)(O)c2cccnc2)CCN(C)C1 (stereo not shown) | human recombinant histamine H2 receptor (Homo sapiens) | % | 40
COc1ccc(C#Cn2c3c(c4cc(Cl)ccc42)CN(C)CC3)cc1F | human recombinant histamine H2 receptor (Homo sapiens) | % | 97
CN1CCc2c(c3cc(Cl)c(Cl)cc3n2CC(C)(O)c2ccncc2)C1 (stereo not shown) | human recombinant histamine H2 receptor (Homo sapiens) | % | 85
CN1CCc2c(c3cc(Cl)ccc3n2C/C(=C/CCO)c2ccc(F)cc2)C1 | human recombinant histamine H2 receptor (Homo sapiens) | % | 84

Let's switch to this compound now.
Measured inhibition at 1 µM, CC(=Cn1c2c(c3cc(Cl)ccc31)CN(C)CC2)c1ccc(Cl)cc1Cl (stereo in doubt) : 91

----------
Molecular target: human recombinant serotonin (5-Hydroxytryptamine) 5-HT6 receptor (Homo sapiens)
Construct: expressed in transfected cells; host or cells: human HeLa cells
Assay: Serotonin 5-HT6 radioligand binding ([3H]LSD)
Conditions: compound at 0.1 μM; read-out: Inhibition of ligand binding, Serotonin 5-HT6 (percent inhibition of specific binding)
Metric: inhibition at 0.1 µM

// worked examples, inhibition at 0.1 µM included
Compound | inhibition at 0.1 µM
C/C(=C\n1c2c(c3cc(C)ccc31)CN(C)CC2)c1ccc(Cl)cc1 | 60%
C/C(=C\n1c2c(c3cc(C)ccc31)CN(C)CC2)c1ccc(C)nc1 | 22%

Measured inhibition at 0.1 µM, COc1ccc([C@](C)(O)Cn2c3c(c4cc(C)ccc42)CN(C)CC3)cc1 : 45%

Measured inhibition at 0.1 µM, Cc1ccc2c(c1)c1c(n2CC(O)(c2ccncc2)C(C)C)CCN(C)C1 (stereo not shown) : 7%

----------
inhibition at 1 µM values for the compounds below.
Biological target: human dopamine D2L receptor (Homo sapiens, UniProt P14416)
Sequence (P14416 whole entry): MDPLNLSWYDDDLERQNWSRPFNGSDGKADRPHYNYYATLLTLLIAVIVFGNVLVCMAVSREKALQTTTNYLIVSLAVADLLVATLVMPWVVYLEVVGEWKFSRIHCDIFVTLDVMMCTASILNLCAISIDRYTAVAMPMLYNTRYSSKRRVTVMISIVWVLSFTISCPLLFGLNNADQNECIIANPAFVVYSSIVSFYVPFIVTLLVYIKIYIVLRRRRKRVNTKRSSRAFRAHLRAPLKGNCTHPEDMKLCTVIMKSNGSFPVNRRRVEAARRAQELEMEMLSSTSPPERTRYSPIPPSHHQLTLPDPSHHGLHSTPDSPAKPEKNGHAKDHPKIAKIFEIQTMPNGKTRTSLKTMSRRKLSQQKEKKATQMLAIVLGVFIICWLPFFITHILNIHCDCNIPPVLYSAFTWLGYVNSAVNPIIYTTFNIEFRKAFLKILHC
Experiment: Dopamine D2L radioligand binding ([3H]Spiperone)
Settings: percent inhibition of specific binding; compound at 1 μM; read-out: Inhibition of ligand binding, Dopamine D2L
From the text: Non-specific binding was estimated in the presence of […] Haloperidol. Receptor proteins were filtered and washed, the filters were then counted to determine [^3H]Spiperone specifically bound. […] Biochemical assay results are presented as the percent inhibition of specific binding in Table 9.
Answer format: number, then unit.

// worked examples, inhibition at 1 µM included
Compound | Target or test system | Metric | Observed
CN1CCc2c(c3cc(Cl)ccc3n2C2=C(c3cccnc3)CCCC2)C1 | human dopamine D2L receptor (Homo sapiens, UniProt P14416) | inhibition at 1 µM | -2%
C/C(=C\n1c2c(c3cc(F)ccc31)CN(C)CC2)c1ccncc1 | human dopamine D2L receptor (Homo sapiens, UniProt P14416) | inhibition at 1 µM | 97%
COc1ccc(/C(C)=C/n2c3c(c4cc(Cl)ccc42)CN(C)CC3)cc1 | human dopamine D2L receptor (Homo sapiens, UniProt P14416) | inhibition at 1 µM | 83%

Measured inhibition at 1 µM, C=C(Cn1c2c(c3cc(Cl)ccc31)CN(C)CC2)c1ccc(F)cc1 : 97%

Measured inhibition at 1 µM, C/C(=C\n1c2c(c3cc(Cl)ccc31)CN(C)CC2)c1cccc(F)c1 : 73%

Measured inhibition at 1 µM, CC/C(=C/n1c2c(c3cc(Cl)ccc31)CN(C)CC2)c1ccncc1 : 57%

Measured inhibition at 1 µM, C/C(=C\n1c2c(c3cc(OC(F)(F)F)ccc31)CN(C)CC2)c1ccncc1 : 89%

Measured inhibition at 1 µM, C/C(=C\n1c2c(c3ccc(Cl)cc31)CN(C)CC2)c1ccc(C)nc1 : 22%

Measured inhibition at 1 µM, C/C(=C\n1c2c(c3cc(C)ccc31)CN(C)CC2)c1cnccn1 : 72%

Measured inhibition at 1 µM, C/C(=C\n1c2c(c3cc(Cl)ccc31)CN(C)CC2)c1ccc(C)nc1 : 68%

Measured inhibition at 1 µM, COc1ccc(/C(C)=C/n2c3c(c4cc(Cl)ccc42)CN(C)CC3)cc1F : 85%

Measured inhibition at 1 µM, Cc1ccc2c(c1)c1c(n2/C=C(\CC(=O)O)c2ccc(F)cc2)CCN(C)C1 : 7%

Measured inhibition at 1 µM, C/C(=C\n1c2c(c3ccc(F)cc31)CN(C)CC2)c1ccc(F)cc1 : 97%

----------
Biological target: human recombinant serotonin (5-Hydroxytryptamine) 5-HT6 receptor (Homo sapiens, UniProt P50406)
Construct: expressed in transfected cells; host or cells: human HeLa cells
Test: Serotonin 5-HT6 radioligand binding ([3H]LSD)
Settings: compound at 0.1 μM; read-out: Inhibition of ligand binding, Serotonin 5-HT6 (percent inhibition of specific binding)
inhibition at 0.1 µM values for the molecules below.
Numbers only here, please. The scale is %.

// worked examples, inhibition at 0.1 µM included
Molecule | Value unit | inhibition at 0.1 µM
C/C(=C\n1c2c(c3ccccc31)CN(C)CC2)c1ccc(F)cc1 | % | 99
Cc1ccc2c(c1)c1c(n2/C=C(/c2ccncc2)C(C)(C)C)CCN(C)C1 | % | 56
COc1ccc([C@@](C)(O)Cn2c3c(c4cc(C)ccc42)CN(C)CC3)cc1 | % | 38
CCN1CCc2c(c3cc(C)ccc3n2/C=C(\C)c2ccncc2)C1 | % | 102
C/C(=C\n1c2c(c3cc(Cl)c(Cl)cc31)CN(C)CC2)c1ccc(F)cc1 | % | 101
C/C(=C\n1c2c(c3cc(C)ccc31)CN(C)CC2)c1ccncc1 | % | 82

Measured inhibition at 0.1 µM, CCC(O)(Cn1c2c(c3cc(C)ccc31)CN(C)CC2)c1ccncc1 (stereo not drawn) : 10

Measured inhibition at 0.1 µM, CCC(O)(Cn1c2c(c3cc(Cl)ccc31)CN(C)CC2)c1ccc(F)cc1 (stereo not drawn) : 78

Measured inhibition at 0.1 µM, Cc1ccc2c(c1)c1c(n2CC(O)(c2ccc(F)cc2)C2CCCCC2)CCN(C)C1 (stereo not drawn) : 35

Measured inhibition at 0.1 µM, C/C(=C\n1c2c(c3ccccc31)CN(C)CC2)c1ccncc1 : 97

Measured inhibition at 0.1 µM, CCN1CCc2c(c3ccccc3n2/C=C(\C)c2ccncc2)C1 : 81

Measured inhibition at 0.1 µM, CN1CCc2c(c3cc(Cl)ccc3n2CC(C)(O)c2ccc(F)cc2)C1 (stereo not drawn) : 48

----------
Target: histamine receptor H1 (Homo sapiens, UniProt P35367)
Sequence (P35367 whole entry): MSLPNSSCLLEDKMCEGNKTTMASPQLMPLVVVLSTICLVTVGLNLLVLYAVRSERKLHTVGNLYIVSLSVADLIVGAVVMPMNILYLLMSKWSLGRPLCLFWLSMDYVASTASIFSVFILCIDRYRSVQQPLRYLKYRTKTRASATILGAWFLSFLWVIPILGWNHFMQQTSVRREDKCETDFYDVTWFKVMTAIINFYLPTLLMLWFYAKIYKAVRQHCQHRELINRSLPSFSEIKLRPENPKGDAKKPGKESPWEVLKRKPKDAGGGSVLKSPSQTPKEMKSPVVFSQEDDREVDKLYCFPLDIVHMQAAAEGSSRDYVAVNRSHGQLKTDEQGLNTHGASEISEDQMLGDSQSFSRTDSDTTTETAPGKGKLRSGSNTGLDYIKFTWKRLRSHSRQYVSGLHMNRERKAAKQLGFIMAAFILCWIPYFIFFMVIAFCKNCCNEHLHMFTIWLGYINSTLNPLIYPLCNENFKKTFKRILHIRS
Test: Histamine H1 radioligand binding ([3H]Pyrilamine)
Conditions: read-out: Histamine Binding (1 μM) H1, percent inhibition of specific binding, 1 μM
inhibition at 1 µM values for the compounds below.
Numbers only here, please. The scale is %.

// worked examples, inhibition at 1 µM included
Compound | inhibition at 1 µM (%)
CSc1cccc(/C(C)=C/n2c3c(c4cc(C)ccc42)CN(C)CC3)c1 [Compound No. 474] | 98
C/C(=C\n1c2c(c3cc(Cl)ccc31)CN(C)CC2)c1cccc(F)c1 [Compound 234] | 69
CC(C)/C(=C/n1c2c(c3cc(Cl)ccc31)CN(C)CC2)c1ccncc1 [Compound 265] | 22
Cc1ccc2c(c1)c1c(n2CC(O)c2ccc(F)cc2)CCN(C)C1 (stereo not drawn) [Compound 172] | 95

Measured inhibition at 1 µM, COc1ccc([C@](C)(O)Cn2c3c(c4cc(C)ccc42)CN(C)CC3)cc1 [Compound 191] : 23

Measured inhibition at 1 µM, CCC(O)(Cn1c2c(c3cc(Cl)ccc31)CN(C)CC2)c1ccncc1 (stereo not drawn) [Compound 195] : 20

Measured inhibition at 1 µM, COc1ccc(/C(C)=C/n2c3c(c4cc(Cl)ccc42)CN(C)CC3)cn1 [compound 454] : 21

Measured inhibition at 1 µM, C/C(=C/n1c2c(c3cc(Cl)ccc31)CN(C)CC2)c1ccc(F)cc1 [compound 397] : 89

Measured inhibition at 1 µM, CNC(=O)c1cccc(/C(C)=C/n2c3c(c4cc(C)ccc42)CN(C)CC3)c1 [Compound No. 472] : 21

Measured inhibition at 1 µM, CN1CCc2c(c3cc(Cl)ccc3n2C=C(c2ccccc2)c2ccccc2)C1 [compound 407] : 10

Measured inhibition at 1 µM, C=C(Cn1c2c(c3cc(Cl)ccc31)CN(C)C(C)C2)c1ccncc1 (stereo not drawn) [Compound 365] : 92
